# Target System: full length NS3/4a (Hepatitis C virus genotype 1b (isolate BK) (HCV), UniProt P26663)
# Sequence (P26663 1027-1657): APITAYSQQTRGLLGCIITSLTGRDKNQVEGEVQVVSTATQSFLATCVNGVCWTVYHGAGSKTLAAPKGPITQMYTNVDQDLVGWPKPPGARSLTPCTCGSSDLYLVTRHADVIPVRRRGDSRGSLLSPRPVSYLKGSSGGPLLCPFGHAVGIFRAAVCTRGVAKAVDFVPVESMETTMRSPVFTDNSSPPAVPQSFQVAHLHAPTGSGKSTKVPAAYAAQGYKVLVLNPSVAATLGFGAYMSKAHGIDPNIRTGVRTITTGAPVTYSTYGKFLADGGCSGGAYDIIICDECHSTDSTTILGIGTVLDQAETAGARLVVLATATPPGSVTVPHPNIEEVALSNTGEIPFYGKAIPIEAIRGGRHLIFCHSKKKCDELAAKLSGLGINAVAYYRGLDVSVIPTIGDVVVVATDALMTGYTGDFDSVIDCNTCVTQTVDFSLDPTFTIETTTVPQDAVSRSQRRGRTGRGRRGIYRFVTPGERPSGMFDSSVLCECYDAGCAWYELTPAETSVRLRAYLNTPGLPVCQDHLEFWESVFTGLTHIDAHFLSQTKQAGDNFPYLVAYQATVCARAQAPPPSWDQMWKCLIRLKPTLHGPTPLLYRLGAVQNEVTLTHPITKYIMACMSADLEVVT
# Assay Text: NS3 Protease Assay (Example A), FRET-based
# Type: biochemical
# Assay Setup: HCV NS3 protease assay, full length NS3/4a; read-out: Assay A IC50 (μM) average
Value Type: IC50

CC[C@@H](N[C@H](C)CC(N)=O)c1ccc(Cl)c(C(=O)c2ccc(F)cc2)c1F [Example 98] = 0.6 µM

# evaluate next
What does the record list as IC50 for CC[C@@H](N[C@@H](C)CC(N)=O)c1ccc(Cl)c(C(=O)c2cccc(O)c2)c1F [Example 227] ?
0.15 µM
